assay: Minimal neurotoxicity (TOX), rotorod test, mice i.p.; type: in vivo; settings: mice i.p., 30 mg/kg, 0.5 h
Quick list: TOX, number of animals exhibiting toxic effects/total number tested per entry.

Example compounds with recorded TOX, number of animals exhibiting toxic effects/total number tested:
NC(=O)OCC(F)(CO)c1ccccc1 (stereo not shown) [fluoro monocarbamate felbamate] : 0/4
NC(=O)OCC1(c2ccccc2)COC(=O)N1 (stereo not shown) [cyclic felbamate] : 0/4
NC(=O)OCC(F)(COC(N)=O)c1ccccc1 [fluoro felbamate] : 1/4

Kindly consider the entry below.
Recorded TOX, number of animals exhibiting toxic effects/total number tested for O=C1NC(=O)C(F)(c2ccccc2)CO1 (stereo not shown) [fluoro dioxo, 5-Fluoro-5-phenyl-1,3-oxazinane2,4-dione] , please?
0/4

* * *

# key: entry, value: TOX, number of animals exhibiting toxic effects/total number tested
Assay: Minimal neurotoxicity (TOX), positional sense and gait and stance tests, rats p.o.
Type: in vivo
Conditions: rat p.o., 30 mg/kg, 4.0 h
Method: The fluoro derivatives synthesized were submitted to the National Institute of Neurological Disorders and Stroke (NINDS) for evaluation in a standard panel of assays. […] The felbamate derivatives were evaluated for anticonvulsant activity following intraperitoneal (i.p.) administration in mice and oral administration in rats. […]

Value lookup for TOX, number of animals exhibiting toxic effects/total number tested; key = O=C1NC(=O)C(F)(c2ccccc2)CO1 (stereo not shown) [fluoro dioxo, 5-Fluoro-5-phenyl-1,3-oxazinane2,4-dione]
0/4

Same lookup for NC(=O)OCC(F)(COC(N)=O)c1ccccc1 [fluoro felbamate] , please.
1/4

Moving on to NC(=O)OCC(F)(CO)c1ccccc1 (stereo not shown) [fluoro monocarbamate felbamate]
0/4

Now this one: NC(=O)OCC1(c2ccccc2)COC(=O)N1 (stereo not shown) [cyclic felbamate]
0/4

* * *

test: Minimal neurotoxicity (TOX), rotorod test, mice i.p.; assay type: in vivo; details: mice i.p., 100 mg/kg, 0.5 h
Listed compounds paired with reported TOX, number of animals exhibiting toxic effects/total number tested

NC(=O)OCC(F)(COC(N)=O)c1ccccc1 [fluoro felbamate] : 4/8

Field request: TOX, number of animals exhibiting toxic effects/total number tested | item: O=C1NC(=O)C(F)(c2ccccc2)CO1 (stereo not shown)
0/8

Field entry: NC(=O)OCC(F)(CO)c1ccccc1 (stereo not shown) [fluoro monocarbamate felbamate]
3/8

NC(=O)OCC1(c2ccccc2)COC(=O)N1 (stereo not shown) [cyclic felbamate] ?
0/8

* * *

Parameter TOX, number of animals exhibiting toxic effects/total number tested: see the listing below.
test: Minimal neurotoxicity (TOX), rotorod test, mice i.p.; type: in vivo; settings: mice i.p., 300 mg/kg, 4.0 h

Solved cases (3 shown):
NC(=O)OCC1(c2ccccc2)COC(=O)N1 (stereo not shown) [cyclic felbamate] : 0/2
NC(=O)OCC(F)(COC(N)=O)c1ccccc1 [fluoro felbamate] : 2/2
NC(=O)OCC(F)(CO)c1ccccc1 (stereo not shown) [fluoro monocarbamate felbamate] : 0/2

# context switch: different molecule, same TOX, number of animals exhibiting toxic effects/total number tested
Any idea what TOX, number of animals exhibiting toxic effects/total number tested was measured for O=C1NC(=O)C(F)(c2ccccc2)CO1 (stereo not shown) [fluoro dioxo, 5-Fluoro-5-phenyl-1,3-oxazinane2,4-dione] ?
0/2

* * *

assay: Minimal neurotoxicity (TOX), rotorod test, mice i.p.; assay type: in vivo; settings: mice i.p., 300 mg/kg, 0.5 h
assay readout: TOX, number of animals exhibiting toxic effects/total number tested

Below: 3 compounds and their reported TOX, number of animals exhibiting toxic effects/total number tested.
NC(=O)OCC1(c2ccccc2)COC(=O)N1 (stereo not shown) [cyclic felbamate] : 0/4
NC(=O)OCC(F)(COC(N)=O)c1ccccc1 [fluoro felbamate] : 4/4
O=C1NC(=O)C(F)(c2ccccc2)CO1 (stereo not shown) [fluoro dioxo, 5-Fluoro-5-phenyl-1,3-oxazinane2,4-dione] : 1/4

Pending compound:
// lookup TOX, number of animals exhibiting toxic effects/total number tested for NC(=O)OCC(F)(CO)c1ccccc1 (stereo not shown) [fluoro monocarbamate felbamate]
2/4

* * *

test: Minimal neurotoxicity (TOX), rotorod test, mice i.p.; format: in vivo; details: mice i.p., 30 mg/kg, 4.0 h
assay readout: TOX, number of animals exhibiting toxic effects/total number tested

// solved cases for TOX, number of animals exhibiting toxic effects/total number tested follow
NC(=O)OCC1(c2ccccc2)COC(=O)N1 (stereo not shown) [cyclic felbamate] : 0/2
O=C1NC(=O)C(F)(c2ccccc2)CO1 (stereo not shown) [fluoro dioxo, 5-Fluoro-5-phenyl-1,3-oxazinane2,4-dione] : 0/2
NC(=O)OCC(F)(CO)c1ccccc1 (stereo not shown) [fluoro monocarbamate felbamate] : 0/2

Next, consider the following compound.
Query: TOX, number of animals exhibiting toxic effects/total number tested; subject: NC(=O)OCC(F)(COC(N)=O)c1ccccc1 [fluoro felbamate]
0/2

* * *

test: Minimal neurotoxicity (TOX), positional sense and gait and stance tests, rats p.o.; type: in vivo; details: rat p.o., 30 mg/kg, 0.25 h
assay readout: TOX, number of animals exhibiting toxic effects/total number tested

O=C1NC(=O)C(F)(c2ccccc2)CO1 (stereo not shown) : 0/4
NC(=O)OCC(F)(COC(N)=O)c1ccccc1 [fluoro felbamate] : 0/4
NC(=O)OCC1(c2ccccc2)COC(=O)N1 (stereo not shown) [cyclic felbamate] : 0/4

Now take the following molecule into account.
Which TOX, number of animals exhibiting toxic effects/total number tested is listed for NC(=O)OCC(F)(CO)c1ccccc1 (stereo not shown) [fluoro monocarbamate felbamate] ?
0/4
